Attribution: patent US20240180881A1

system: BLM-RAD54 interaction (BLM F2 and N-RAD54 F1) (Homo sapiens, UniProt Q92698)
Construct: expressed in transfected cells; host or cells: HEK293T
test_name: Renilla luciferase-based protein complementation assay (PCA)
Format: cell-based
reported_conditions: disruption of BLM F2 / N-RAD54 F1 interaction, HEK293T cells, 1 nM to 100 μM; read-out: EC50
pEC50: −log10 of the molar value. Counter-ions that a name gives are not always drawn.
assay_endpoint: pEC50

[[record]]
compound = "C[C@]12C=CC(=O)C=C1CC[C@@H]1[C@@H]2C(=O)C[C@@]2(C)[C@H]1CC[C@]2(O)C(=O)CO"
result_number = 8.20

[[record]]
compound = "CN1CCN(C2=Nc3ccccc3Oc3ccc(Cl)cc32)CC1.O=C(O)CCC(=O)O [C17, Loxapine succinate]"
result_number = 7.64

[[record]]
compound = "CN(C)C(=N)N=C(N)N [C4, Metformin hydrochloride]"
result_number = 8.52

[[record]]
compound = "Cc1cnc(C(=O)NCCc2ccc(S(=O)(=O)NC(=O)NC3CCCCC3)cc2)cn1 [C13, Glipizide]"
result_number = 8.17

[[record]]
compound = "CC[C@H]1OC(=O)[C@H](C)[C@@H](O[C@H]2C[C@@](C)(OC)[C@@H](O)[C@H](C)O2)[C@H](C)[C@@H](O[C@@H]2O[C@H](C)C[C@H](N(C)C)[C@H]2O)[C@](C)(O)C[C@@H](C)C(=O)[C@H](C)[C@@H](O)[C@]1(C)O"
result_number = 8.09

[[record]]
compound = "CC(=O)Nc1nnc(S(N)(=O)=O)s1 [C3, Acetazolamide]"
result_number = 8.38

[[record]]
compound = "COc1c2occc2c(OC)c2c(=O)cc(C)oc12"
result_number = 7.78

[[record]]
compound = "OCCN(CCO)c1nc(N2CCCCC2)c2nc(N(CCO)CCO)nc(N3CCCCC3)c2n1"
result_number = 8.21

[[record]]
compound = "Cc1ncc([N+](=O)[O-])n1CCO"
result_number = 7.69


###

Target protein (sequence): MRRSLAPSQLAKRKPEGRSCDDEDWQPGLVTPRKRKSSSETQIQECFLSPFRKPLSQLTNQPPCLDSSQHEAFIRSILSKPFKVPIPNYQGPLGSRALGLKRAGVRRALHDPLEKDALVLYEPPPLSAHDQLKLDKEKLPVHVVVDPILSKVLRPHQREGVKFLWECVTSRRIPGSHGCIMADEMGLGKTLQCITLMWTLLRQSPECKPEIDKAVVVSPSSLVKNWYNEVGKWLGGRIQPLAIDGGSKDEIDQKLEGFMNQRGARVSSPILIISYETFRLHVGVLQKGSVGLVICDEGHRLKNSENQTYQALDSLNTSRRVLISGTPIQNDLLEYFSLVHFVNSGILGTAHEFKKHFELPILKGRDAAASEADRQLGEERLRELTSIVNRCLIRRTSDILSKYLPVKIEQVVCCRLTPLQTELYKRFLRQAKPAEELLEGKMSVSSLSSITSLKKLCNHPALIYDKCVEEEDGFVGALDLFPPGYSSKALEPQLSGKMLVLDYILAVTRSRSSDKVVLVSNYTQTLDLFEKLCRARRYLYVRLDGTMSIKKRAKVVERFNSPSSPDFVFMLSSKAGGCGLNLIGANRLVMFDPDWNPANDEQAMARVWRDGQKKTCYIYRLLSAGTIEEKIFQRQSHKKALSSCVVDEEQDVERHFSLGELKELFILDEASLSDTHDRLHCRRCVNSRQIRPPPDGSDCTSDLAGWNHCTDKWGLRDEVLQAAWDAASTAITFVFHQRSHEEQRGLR
assay_endpoint: Kd (µM)

[[record]]
compound = "CC(=O)Nc1nnc(S(N)(=O)=O)s1 [C3, Acetazolamide]"
assay_endpoint = "Kd"
unit_descriptor = "µM"
result_number = 55.8

[[record]]
compound = "CN1CCN(C2=Nc3ccccc3Oc3ccc(Cl)cc32)CC1.O=C(O)CCC(=O)O [C17, Loxapine succinate]"
assay_endpoint = "Kd"
unit_descriptor = "µM"
result_number = 0.0803

[[record]]
compound = "OCCN(CCO)c1nc(N2CCCCC2)c2nc(N(CCO)CCO)nc(N3CCCCC3)c2n1"
assay_endpoint = "Kd"
unit_descriptor = "µM"
result_number = 5.04

